molecular target: plasma purified human complement protein C3 (human) (UniProt P01024); assay: cell-based or functional assay
Sequence (P01024 23-667, chain 1 of 2): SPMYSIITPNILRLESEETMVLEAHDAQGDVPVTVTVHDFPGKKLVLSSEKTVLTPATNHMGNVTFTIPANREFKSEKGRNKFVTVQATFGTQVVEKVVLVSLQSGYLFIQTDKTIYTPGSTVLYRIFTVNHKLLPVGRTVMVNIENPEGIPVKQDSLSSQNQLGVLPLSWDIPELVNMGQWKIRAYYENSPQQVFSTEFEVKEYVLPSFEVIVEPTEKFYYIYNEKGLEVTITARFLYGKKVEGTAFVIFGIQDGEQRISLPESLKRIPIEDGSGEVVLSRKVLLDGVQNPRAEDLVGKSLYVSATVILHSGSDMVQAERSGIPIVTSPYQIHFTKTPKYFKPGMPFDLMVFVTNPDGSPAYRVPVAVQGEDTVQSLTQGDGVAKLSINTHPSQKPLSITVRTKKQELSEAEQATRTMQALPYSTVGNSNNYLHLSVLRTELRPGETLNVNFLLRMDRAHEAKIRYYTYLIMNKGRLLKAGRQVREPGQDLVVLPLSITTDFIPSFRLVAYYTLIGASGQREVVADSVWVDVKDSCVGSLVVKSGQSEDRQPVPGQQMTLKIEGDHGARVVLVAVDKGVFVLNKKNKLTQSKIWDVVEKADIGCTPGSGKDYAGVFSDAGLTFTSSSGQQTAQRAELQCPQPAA
Sequence (P01024 672-1663, chain 2 of 2): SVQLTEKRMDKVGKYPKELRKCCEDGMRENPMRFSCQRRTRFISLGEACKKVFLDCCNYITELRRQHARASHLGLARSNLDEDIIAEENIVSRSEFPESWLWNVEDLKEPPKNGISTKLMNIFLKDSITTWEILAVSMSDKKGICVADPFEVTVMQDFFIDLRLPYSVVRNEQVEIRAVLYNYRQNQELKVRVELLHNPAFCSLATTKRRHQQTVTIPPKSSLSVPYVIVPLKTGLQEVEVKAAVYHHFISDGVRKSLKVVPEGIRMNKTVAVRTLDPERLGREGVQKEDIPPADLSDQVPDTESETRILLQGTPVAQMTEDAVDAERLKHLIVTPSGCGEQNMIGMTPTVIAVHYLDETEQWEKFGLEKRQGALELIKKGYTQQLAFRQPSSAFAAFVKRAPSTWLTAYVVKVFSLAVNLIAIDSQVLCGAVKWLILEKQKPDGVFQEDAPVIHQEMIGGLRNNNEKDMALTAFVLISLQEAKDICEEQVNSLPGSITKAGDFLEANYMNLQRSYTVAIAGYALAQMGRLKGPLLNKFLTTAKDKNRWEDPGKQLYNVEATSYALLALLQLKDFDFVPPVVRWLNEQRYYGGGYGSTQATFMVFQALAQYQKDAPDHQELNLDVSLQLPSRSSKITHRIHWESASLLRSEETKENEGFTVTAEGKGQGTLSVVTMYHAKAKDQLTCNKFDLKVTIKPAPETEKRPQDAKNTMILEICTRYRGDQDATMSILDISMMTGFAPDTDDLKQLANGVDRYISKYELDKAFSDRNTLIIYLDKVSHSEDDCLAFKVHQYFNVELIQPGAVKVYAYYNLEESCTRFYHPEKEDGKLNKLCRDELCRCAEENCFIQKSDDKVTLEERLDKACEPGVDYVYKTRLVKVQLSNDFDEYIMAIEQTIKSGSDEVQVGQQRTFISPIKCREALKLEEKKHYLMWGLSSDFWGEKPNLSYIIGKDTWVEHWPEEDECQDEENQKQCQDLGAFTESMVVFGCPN
Measure: EC50 of hC3 cleavage (µM)
Provide only the numeric value, understood in µM.

Observe how each entry below is paired with its result.
- Binder: "MTSP-1 H40R/I41H/F97D/F99L/C122S/Q192G (enzyme) VVGGTDADEGEWPWQVSLHALGQGRHCGASLISPNWLVSAAHCYIDDRGFRYSDPTQWTAFLGLHDQSQRSAPGVQERRLKRIISHPFFNDDTLDYDIALLELEKPAEYSSMVRPISLPDASHVFPAGKAIWVTGWGHTQYGGTGALILQKGEIRVINQTTCENLLPQQITPRMMCVGFLSGGVDSCGGDSGGPLSSVEADGRIFQAGVVSWGDGCAQRNKPGVYTRLPLFRDWIKENTGV"
  Measure: "EC50 of hC3 cleavage"
  Uom: "µM"
  Quantitative readout: 0.0354
- Binder: "MTSP-1 Q38H/I41S/F60eS/Y60gW/D96K/F97G/ins97aV/T98P/F99L/C122S/G151H/Q175L/Q192D (enzyme) VVGGTDADEGEWPWQVSLHALGHGHSCGASLISPNWLVSAAHCYIDDRGSRWSDPTQWTAFLGLHDQSQRSAPGVQERRLKRIISHPFFNKGVPLDYDIALLELEKPAEYSSMVRPISLPDASHVFPAGKAIWVTGWGHTQYGGTHALILQKGEIRVINQTTCENLLPQLITPRMMCVGFLSGGVDSCDGDSGGPLSSVEADGRIFQAGVVSWGDGCAQRNKPGVYTRLPLFRDWIKENTGV"
  Measure: "EC50 of hC3 cleavage"
  Uom: "µM"
  Quantitative readout: 0.0131
- Binder: "MTSP-1 H40R/I41H/F97D/F99L/C122S/G151N/Q175M/Q192A/D217N/K224R (enzyme) VVGGTDADEGEWPWQVSLHALGQGRHCGASLISPNWLVSAAHCYIDDRGFRYSDPTQWTAFLGLHDQSQRSAPGVQERRLKRIISHPFFNDDTLDYDIALLELEKPAEYSSMVRPISLPDASHVFPAGKAIWVTGWGHTQYGGTNALILQKGEIRVINQTTCENLLPQMITPRMMCVGFLSGGVDSCAGDSGGPLSSVEADGRIFQAGVVSWGNGCAQRNRPGVYTRLPLFRDWIKENTGV"
  Measure: "EC50 of hC3 cleavage"
  Uom: "µM"
  Quantitative readout: 0.563
- Binder: "MTSP-1 Q38D/I41S/D60bT/F60eR/ins97aV/F97D/T98P/F99L/C122S/G151K/Q175S/Q192V (enzyme) VVGGTDADEGEWPWQVSLHALGDGHSCGASLISPNWLVSAAHCYIDTRGRRYSDPTQWTAFLGLHDQSQRSAPGVQERRLKRIISHPFFNDDVPLDYDIALLELEKPAEYSSMVRPISLPDASHVFPAGKAIWVTGWGHTQYGGTKALILQKGEIRVINQTTCENLLPQSITPRMMCVGFLSGGVDSCVGDSGGPLSSVEADGRIFQAGVVSWGDGCAQRNKPGVYTRLPLFRDWIKENTGV"
  Measure: "EC50 of hC3 cleavage"
  Uom: "µM"
  Quantitative readout: 0.0481

query: Give the reported value of EC50 of hC3 cleavage for this record: MTSP-1 ins97aE/F97T/T98G/F99L/C122S/I136M/L155M/N170D/Q175L/Q192E (enzyme) VVGGTDADEGEWPWQVSLHALGQGHICGASLISPNWLVSAAHCYIDDRGFRYSDPTQWTAFLGLHDQSQRSAPGVQERRLKRIISHPFFNDTEGLDYDIALLELEKPAEYSSMVRPISLPDASHVFPAGKAMWVTGWGHTQYGGTGALIMQKGEIRVINQTTCEDLLPQLITPRMMCVGFLSGGVDSCEGDSGGPLSSVEADGRIFQAGVVSWGDGCAQRNKPGVYTRLPLFRDWIKENTGV
result: 0.429

query: Supply EC50 of hC3 cleavage value. Item: MTSP-1 H40R/I41H/F97D/F99L/C122S/G151N/Q192N/D217L/K224R (enzyme) VVGGTDADEGEWPWQVSLHALGQGRHCGASLISPNWLVSAAHCYIDDRGFRYSDPTQWTAFLGLHDQSQRSAPGVQERRLKRIISHPFFNDDTLDYDIALLELEKPAEYSSMVRPISLPDASHVFPAGKAIWVTGWGHTQYGGTNALILQKGEIRVINQTTCENLLPQQITPRMMCVGFLSGGVDSCNGDSGGPLSSVEADGRIFQAGVVSWGLGCAQRNRPGVYTRLPLFRDWIKENTGV
result: 0.346

query: Give the value of EC50 of hC3 cleavage reported for the following: MTSP-1 I41G/F97I/F99L/C122S/G151L/Q175M/Q192S/D217V (enzyme) VVGGTDADEGEWPWQVSLHALGQGHGCGASLISPNWLVSAAHCYIDDRGFRYSDPTQWTAFLGLHDQSQRSAPGVQERRLKRIISHPFFNDITLDYDIALLELEKPAEYSSMVRPISLPDASHVFPAGKAIWVTGWGHTQYGGTLALILQKGEIRVINQTTCENLLPQMITPRMMCVGFLSGGVDSCSGDSGGPLSSVEADGRIFQAGVVSWGVGCAQRNKPGVYTRLPLFRDWIKENTGV
result: 0.00284
